The measured values listed here are drawn from ChEMBL document CHEMBL1134386.

measurement-target: Sulfonylurea receptor 1, Kir6.2 (Homo sapiens) (UniProt Q14654+Q09428)
assay-summary: Antiarrhythmic effect in hSUR1/hKir6.2 (pancreatic KATP channel) transfected in CHO cells at a dose of 10 uM
Type: functional, cell-based
experimental-setup: at 10 µM
measurement-label: inhibition (%)

INSERT INTO assay_data (molecule, measurement_target, measurement_label, measured) VALUES
  ('CN/C(S)=N/S(=O)(=O)c1cc2c(cc1OC)OCCC2CNC(=O)c1cc(Cl)ccc1OC (single isomer, unassigned; (-))', 'Sulfonylurea receptor 1, Kir6.2 (Homo sapiens) (UniProt Q14654+Q09428)', 'inhibition', 75.7),
  ('CCCOc1ccc(CCNC(=O)c2cc(Cl)ccc2OC)cc1S(=O)(=O)/N=C(\S)NC', 'Sulfonylurea receptor 1, Kir6.2 (Homo sapiens) (UniProt Q14654+Q09428)', 'inhibition', 103),
  ('CN/C(S)=N/S(=O)(=O)c1cc2c(cc1OC)OCCC2CNC(=O)c1cc(Cl)ccc1OC (single isomer, unassigned; (+))', 'Sulfonylurea receptor 1, Kir6.2 (Homo sapiens) (UniProt Q14654+Q09428)', 'inhibition', 70.7),
  ('COc1ccc(Cl)cc1C(=O)NCCc1ccc(OC)c(S(=O)(=O)/N=C(\S)NC2CCCCC2)c1', 'Sulfonylurea receptor 1, Kir6.2 (Homo sapiens) (UniProt Q14654+Q09428)', 'inhibition', 122),
  ('CN/C(S)=N/S(=O)(=O)c1cc(CCNC(=O)c2cc(Cl)ccc2OC)c(C)c(C)c1OC', 'Sulfonylurea receptor 1, Kir6.2 (Homo sapiens) (UniProt Q14654+Q09428)', 'inhibition', 64.9),
  ('CNC(=S)NS(=O)(=O)c1cc(CCNC(=O)c2cc(Cl)ccc2OC)ccc1OC', 'Sulfonylurea receptor 1, Kir6.2 (Homo sapiens) (UniProt Q14654+Q09428)', 'inhibition', 83.8),
  ('CN/C(S)=N/S(=O)(=O)c1cc(CCNC(=O)c2cc(Cl)ccc2OC)ccc1I', 'Sulfonylurea receptor 1, Kir6.2 (Homo sapiens) (UniProt Q14654+Q09428)', 'inhibition', 89.2),
  ('CN/C(S)=N/S(=O)(=O)c1cc(CCNC(=O)c2cc(Cl)ccc2OC)ccc1S(C)(=O)=O', 'Sulfonylurea receptor 1, Kir6.2 (Homo sapiens) (UniProt Q14654+Q09428)', 'inhibition', 16.4);
